# protocol: in vitro
# measurement_conditions: human, hela cells, % viability, bulk resorufin, single well

- compound: "CC(=O)N1CCC2(CC1)OCc1cc(-c3ccccc3C#N)ccc1O2"
  unit_tag: "%"
  viability at 28.5 h, 10 µM: 100
- compound: "O=C(O)c1cccc(NC(=O)c2cc([N+](=O)[O-])cc([N+](=O)[O-])c2)c1"
  unit_tag: "%"
  viability at 28.5 h, 10 µM: 92.8
- compound: "O=C(O)COCC(=O)N1CCC2(CC1)OCc1cc(F)ccc1O2"
  unit_tag: "%"
  viability at 28.5 h, 10 µM: 106
- compound: "Cc1cc(/C=C2\\C(=O)NC(=O)N(C)C2=O)c(C)n1-c1ccc(Oc2ccc([N+](=O)[O-])cn2)cc1"
  unit_tag: "%"
  viability at 28.5 h, 10 µM: 100
- compound: "O=C1NC(=O)C(CCc2ccncc2)(Cc2ccc3c(c2)OCO3)C(=O)N1CCc1ccccc1 (centres unmarked)"
  unit_tag: "%"
  viability at 28.5 h, 10 µM: 105
- compound: "O=C(Cn1cc(/C=C2\\C(=O)NC(=S)N(c3cccc(F)c3)C2=O)c2ccccc21)Nc1ccccc1"
  unit_tag: "%"
  viability at 28.5 h, 10 µM: 106
- compound: "CC(=O)c1ccc(-c2ccc3c(c2)COC2(CCN(C(C)=O)CC2)O3)s1"
  unit_tag: "%"
  viability at 28.5 h, 10 µM: 109
- compound: "O=C(Nc1ccccc1C(F)(F)F)N1CCC2(CC1)OCCO2"
  unit_tag: "%"
  viability at 28.5 h, 10 µM: 94.1
- compound: "Cc1cccc(OP(=O)(O)Oc2cccc(C)c2C)c1C"
  unit_tag: "%"
  viability at 28.5 h, 10 µM: 91.7
- compound: "O=C(O)CCn1cc(C=C2C(=O)NC(=S)NC2=O)c(-c2cccc([N+](=O)[O-])c2)n1"
  unit_tag: "%"
  viability at 28.5 h, 10 µM: 116
- compound: "COc1ccc(CN2CCN(Cc3cc(Br)ccc3O)CC2)cc1"
  unit_tag: "%"
  viability at 28.5 h, 10 µM: 99.4
